System: H3K9me3
Test Protocol: Hypermethylation of histone H3 at lysine 9 (H3K9me3), MCF7
Type: cell-based
Experimental Conditions: Homo sapiens, 2 DT, n = 2, read-out: EC50 H3K9me3 levels
Assay Readout: EC50 (nM)

Compound: CCN1CCN(Cc2ccc(Nc3ncc(F)c(-c4cc(F)c5nc(C)n(C(C)C)c5c4)n3)nc2)CC1 [abemaciclib, Abemaciclib]
Assay Readout: EC50
Result Value: 340

====

System: MCF7 cells
Test Protocol: BrdU incorporation ELISA in MCF7
Type: cell-based
Experimental Conditions: Homo sapiens, 3 DT
Method: Relative IC50/EC50 values were determined by curve fitting to a four parameter logistic equation: Y = bottom + ((top-bottom)/ (1+exp(HillSlope*(X – LnIC50)), where X is the natural log of dose/concentration, Y is response, decreasing as X increases, top and bottom are plateaus in the same units as Y, lnIC50 is the natural log of potency, in the same log units as X, and HillSlope measures the steepness of the curve. Data were plotted using GraphPad Prism. […]
Assay Readout: EC50 (nM)

Compound: CCN1CCN(Cc2ccc(Nc3ncc(F)c(-c4cc(F)c5nc(C)n(C(C)C)c5c4)n3)nc2)CC1 [abemaciclib, Abemaciclib]
Assay Readout: EC50
Units: nM
Result Value: 178

====

Tested on: MDA-MB-361 cells
Test Protocol: PI high content imaging of G1 arrest and cell proliferation, MDA-MB-361
Type: cell-based
Experimental Conditions: Homo sapiens, at least 2 DT, n = 2, read-out: IC50 2n (G1 arrest)
Experimental: Relative IC50/EC50 values were determined by curve fitting to a four parameter logistic equation: Y = bottom + ((top-bottom)/ (1+exp(HillSlope*(X – LnIC50)), where X is the natural log of dose/concentration, Y is response, decreasing as X increases, top and bottom are plateaus in the same units as Y, lnIC50 is the natural log of potency, in the same log units as X, and HillSlope measures the steepness of the curve. Data were plotted using GraphPad Prism. […]

Compound: CCN1CCN(Cc2ccc(Nc3ncc(F)c(-c4cc(F)c5nc(C)n(C(C)C)c5c4)n3)nc2)CC1 [abemaciclib, Abemaciclib]
IC50 / nM: 38

====

Tested on: MCF7 cells
Test Protocol: PI high content imaging of G1 arrest and cell proliferation, MCF7
Type: cell-based
Experimental Conditions: Homo sapiens, n = 2, read-out: IC50 2n (G1 arrest)
pIC50: −log10 of the molar value.

Entry Smiles: CCN1CCN(Cc2ccc(Nc3ncc(F)c(-c4cc(F)c5nc(C)n(C(C)C)c5c4)n3)nc2)CC1
Tested Target: MCF7 cells
pIC50: 7.27

====

Tested on: pRb (Ser780)
Test Protocol: High content imaging of Rb phosphorylation (Ser780), MDA-MB-361
Format: cell-based
Experimental Conditions: Homo sapiens, 16 hours, mean ± Stdev n = 2

Entry Smiles: CCN1CCN(Cc2ccc(Nc3ncc(F)c(-c4cc(F)c5nc(C)n(C(C)C)c5c4)n3)nc2)CC1
Tested Target: pRb (Ser780)
IC50: 67 nM

====

Tested on: MCF7 cells
Test Protocol: TCA metabolite profiling by LC/MS in MCF7
Format: cell-based, human
Experimental Conditions: Homo sapiens, MCF7, MCF7; 3DT; single experiment; read-out: EC50 α-ketoglutarate
Assay Readout: EC50 (nM)

Entry Smiles: CCN1CCN(Cc2ccc(Nc3ncc(F)c(-c4cc(F)c5nc(C)n(C(C)C)c5c4)n3)nc2)CC1
Result Value: 730
